- condition notes: in ethanol, 318.15 K
reported metric: solubility (mole fraction)

Entry `Nc1ccc(Cl)nn1` — recorded solubility (mole fraction) = 0.005

###

- condition notes: in acetone, 308.15 K
reported metric: solubility (mole fraction)

Sample `Nc1ccc(Cl)nn1` ; solubility (mole fraction) observed: 0.00513

###

- condition notes: in n-butanol, 302.95 K
reported metric: solubility (mole fraction)

Field solubility (mole fraction) (entry `Nc1ccc(Cl)nn1` ) reads 0.00224

###

- condition notes: in toluene, 303.25 K
reported metric: solubility (mole fraction)

The value of solubility (mole fraction) measured for the compound `Nc1ccc(Cl)nn1` turned out to be 6.73e-05
